System: K-562 leukemia
Assay: NCI-60 one-dose screen, 48 h (100 = growth as untreated, 0 = no growth, -100 = all killed)
Conditions: 10 µM unless noted
Experimental: Cells are grown in 96 well plates and exposed to the test compound for 48 hours. Compounds are tested at a single concentration, which is 10^-5 M for most compounds. The reported endpoint is percent growth (GI% or GIPRCNT), where numbers from 0 - 100% represent growth inhibition, and numbers from -100% - 0 represent cell death. For example, a value of 40 represents 60% growth inhibition. A value of 0 means no net growth occurred over the course of the experiment. […]
Compounds without any hit were thinned out: in the full panel of roughly 83,000, 20% have a hit.
Reported growth values are given for each entry in this list.
The figure you give is taken to be in %; do not add the unit.

A selection of reference data follows.
>>> value_observed("O=C(CS(=O)c1oc(-c2cccs2)nc1S(=O)(=O)c1ccc(Br)cc1)c1ccccc1 (centres undefined)")
95.3
>>> value_observed("O=C(Cc1ccc(F)c(Cl)c1)Nc1cc(C2(C(F)(F)F)CC2)nn1CC1CCCCC1")
11.1
>>> value_observed("CCc1ccc2nc(NC(=O)Cc3csc(NC(=O)c4ccco4)n3)sc2c1")
64.5
>>> value_observed("COc1ccc(-c2nc3sc(-c4ccccc4)cn3n2)cc1")
23.8
>>> value_observed("COc1cc(/C=C/c2c(C(C)=O)c(C)nc3ccccc23)cc(OC)c1OC")
13.8

stdin: Using the record for CC([C@H]1CCC2C3CCC4C[C@@H](NC=O)CC[C@]4(C)C3CC[C@@]21C)N(C)C (some centres undefined) , report its growth.
stdout: -39.8

Cited source: PubChem BioAssay (NCI)
